B1: Zinc finger MYM-type protein 3, residues 405 to 444; numbered along this chain, Q14202 (parent)
chain: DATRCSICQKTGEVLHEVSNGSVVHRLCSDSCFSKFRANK

Variants of: B1
Test: abundance fitness (aPCA) (normalised: wild type 0, dead -1); higher = more abundant; growth selection in yeast, the domain comes from the species named
Conditions: Homo sapiens

{"columns": ["mutant", "abundance fitness"],
 "data": [
  ["D1L", -0.07],
  ["S34F", -0.18],
  ["C28G", -0.623],
  ["D30T", -0.219],
  ["I7S", -0.269],
  ["C32D", -0.301],
  ["R4L", -0.32],
  ["F36N", -0.772],
  ["R37E", 0.395],
  ["T11L", -0.116],
  ["F36Y", -0.22],
  ["G12R", -0.165],
  ["F33M", 0.187],
  ["T3I", -0.028],
  ["Q9V", -0.803],
  ["K10T", -0.277],
  ["A38F", -0.259],
  ["V23I", -0.087],
  ["I7P", -0.804],
  ["V18C", -0.201],
  ["S29C", -0.591],
  ["S31N", -0.089],
  ["E13M", -0.074],
  ["V18Q", -0.243],
  ["F36H", -0.053],
  ["V23C", -0.937],
  ["A38N", -0.461],
  ["F33P", -0.186],
  ["S29H", -0.683],
  ["I7T", -0.218],
  ["S31G", 0.055],
  ["G21F", -0.366],
  ["N20K", -0.138],
  ["V18M", -0.266],
  ["E13T", -0.111],
  ["T3Y", -0.025],
  ["A38K", -0.228],
  ["C5A", -1.29],
  ["I7W", -0.218],
  ["R26I", -0.173],
  ["L15E", -0.227],
  ["L27V", -0.22],
  ["S19F", -0.101],
  ["S29Y", -0.936],
  ["R4P", -0.335],
  ["V23F", -0.01],
  ["N20P", -0.559],
  ["K10C", -0.367],
  ["F33I", -0.067],
  ["D30G", -0.269],
  ["S22V", -0.571],
  ["T11S", -0.315],
  ["I7N", 0.209],
  ["T11R", -0.287],
  ["R26Q", 0.097],
  ["V14W", -0.561],
  ["T3M", 0.426],
  ["V24W", -0.292],
  ["V18G", -0.42],
  ["R26G", -0.117],
  ["R4V", -0.193],
  ["V14M", -0.029],
  ["S34E", 0.32],
  ["H16N", -0.252],
  ["F36K", -0.426],
  ["N20H", -0.033],
  ["S22I", -0.153],
  ["N20F", -0.431],
  ["L27Q", -0.294],
  ["L15T", -0.141],
  ["K10N", -0.559],
  ["S34G", 0.137],
  ["L15H", 0.017],
  ["R4S", -0.35],
  ["F33E", 0.175],
  ["K10V", -0.649],
  ["S34W", -0.187],
  ["T11V", -0.452]
]}
